Test Name: Acute toxicity in secondary evaluation when administered intravenously (iv) against aconitine-induced arrhythmias in anesthetized rats.
Assay type: organism-based
Condition Details: rat, in vivo
Readout Label: LD50

# compound CC.Cc1cccc(C)c1NC(=O)CNC(=O)C1CC(C)(C)N(O)C1(C)C (stereo unspecified) ; its LD50 = > 200 mg/kg

----------
System: Rattus norvegicus
Test Name: Incidence of arrhythmias in rats after a intravenal administration at 4 mg/kg, expressed as no. of positive cases out of no. of tested cases (10)
Format: functional
Field 'label' (enum: yes (1) / no (0)). Set to yes (1) when No. of positive cases is strictly under 7; else no (0).

Task: Answer whether the compound Cc1cccc(C)c1OCC(C)NC(=O)C1=CC(C)(C)N([O])C1(C)C (stereo not drawn) has No. of positive cases strictly less than 7
Output: yes (1)

Task: Answer whether the compound CC.Cc1cccc(C)c1NC(=O)CNC(=O)C1CC(C)(C)N(O)C1(C)C (stereo not drawn) has No. of positive cases strictly less than 7
Output: yes (1)

Task: Answer whether the compound CC1(C)C=C(C(=O)NCCNC(=O)c2ccccc2C(=O)O)C(C)(C)N1 has No. of positive cases strictly less than 7
Output: yes (1)

Task: Answer whether the compound COc1cccc(CNCCCNC(=O)C2=CC(C)(C)NC2(C)C)c1O has No. of positive cases strictly less than 7
Output: no (0)

Task: Answer whether the compound COc1cc(C(=O)NCCCNC(=O)C2=CC(C)(C)NC2(C)C)cc(OC)c1OC has No. of positive cases strictly less than 7
Output: yes (1)

Task: Answer whether the compound Cc1nc2ccccc2c(=O)n1CCNC(=O)C1=CC(C)(C)NC1(C)C has No. of positive cases strictly less than 7
Output: yes (1)

Task: Answer whether the compound Cc1nc2ccccc2c(=O)n1CCCNC(=O)C1=CC(C)(C)NC1(C)C has No. of positive cases strictly less than 7
Output: no (0)

Task: Answer whether the compound C/C=C/c1ccc(OCC(=O)NCC(C)(C)CNC(=O)C2=CC(C)(C)NC2(C)C)c(OC)c1 has No. of positive cases strictly less than 7
Output: yes (1)

Task: Answer whether the compound CC1(C)C=C(C(=O)NCCNC(=O)Cc2cccs2)C(C)(C)N1 has No. of positive cases strictly less than 7
Output: yes (1)

Task: Answer whether the compound Cc1cccc(C)c1NC(=O)C(C)NC(=O)C1=CC(C)(C)N([O])C1(C)C (stereo not drawn) has No. of positive cases strictly less than 7
Output: yes (1)

Task: Answer whether the compound CC1(C)C=C(C(=O)NCCCNC(=O)Cc2cccs2)C(C)(C)N1 has No. of positive cases strictly less than 7
Output: no (0)

Task: Answer whether the compound CC1(C)C=C(C(=O)NCCNCc2ccc(Cl)cc2)C(C)(C)N1 has No. of positive cases strictly less than 7
Output: yes (1)

Task: Answer whether the compound CC(NCCNC(=O)C1=CC(C)(C)NC1(C)C)c1cccs1 (stereo not drawn) has No. of positive cases strictly less than 7
Output: yes (1)

Task: Answer whether the compound CC1(C)C=C(C(=O)NCCCNC(=O)COc2ccccc2)C(C)(C)N1 has No. of positive cases strictly less than 7
Output: no (0)

Task: Answer whether the compound CC1(C)C=C(C(=O)NCCNC(=O)C2CCCCC2C(=O)O)C(C)(C)N1 (stereo not drawn) has No. of positive cases strictly less than 7
Output: yes (1)

Task: Answer whether the compound CC1(C)C=C(C(=O)NCCCNCc2ccccc2)C(C)(C)N1 has No. of positive cases strictly less than 7
Output: no (0)

Task: Answer whether the compound CC1(C)C=C(C(=O)NCCNCc2cccs2)C(C)(C)N1 has No. of positive cases strictly less than 7
Output: yes (1)
